- System: 475296-252-R-J1-PDC spheroid viability;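 further: spheroids exposed to agents for seven days before readout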
- METHOD_SUMMARY: Anticancer human tumor 475296-252-R-J1-PDC patient-derived rectal carcinoma cell line growth inhibition [PI3K]
- APPLIED_CONDITIONS: curve of first compound; second compound 0.01 µM; spheroids with HUVEC and MSC
pIC50: −log10 of the molar value.
Kindly state pIC50 for each of the entries shown.

475296-252-R-J1-PDC spheroid viability / pIC50 / Cn1ncnc1[C@H]1c2n[nH]c(=O)c3cc(F)cc(c23)N[C@@H]1c1ccc(F)cc1 + CC(Nc1ccc2c(c1)OCCn1cc(N3C(=O)OCC3C(F)F)nc1-2)C(N)=O : value? < 7.00

Notebook: pull reported pIC50 for 475296-252-R-J1-PDC spheroid viability, entry CC(=O)c1c(C)c2cnc(Nc3ccc(N4CCNCC4)cn3)nc2n(C2CCCC2)c1=O + CC(Nc1ccc2c(c1)OCCn1cc(N3C(=O)OCC3C(F)F)nc1-2)C(N)=O < 7.00

Kindly state the measured pIC50 obtained for CC(=O)c1c(C)c2cnc(Nc3ccc(N4CCNCC4)cn3)nc2n(C2CCCC2)c1=O + COc1c(OCCCN2CCOCC2)ccc2c3n(c(=NC(=O)c4cnc(N)nc4)nc12)CCN3 with 475296-252-R-J1-PDC spheroid viability. < 7.00

Missing value: pIC50, 475296-252-R-J1-PDC spheroid viability, entry C[C@@H](NC(=O)c1ncnc(N)c1Cl)c1ncc(C(=O)Nc2cc(C(F)(F)F)c(Cl)cn2)s1 + COc1c(OCCCN2CCOCC2)ccc2c3n(c(=NC(=O)c4cnc(N)nc4)nc12)CCN3 . Fill in? < 5.00

Please provide the recorded pIC50 for CNC(=O)c1ccc(N2C(=S)N(c3ccc(C#N)c(C(F)(F)F)c3)C(=O)C2(C)C)cc1F + CC(Nc1ccc2c(c1)OCCn1cc(N3C(=O)OCC3C(F)F)nc1-2)C(N)=O , tested on 475296-252-R-J1-PDC spheroid viability. < 5.00
